molecular target: T1, human vascular endothelial growth factor receptor-2 Fc chimera (KDR-Fc) (human, UniProt P35968 20-764); assay: radioactive equilibrium binding, 1 nM KDR-Fc, % of input
T1 construct: range 1-764; also called human VEGFR-2; not shown: human IgG1 Fc
T1 sequence (P35968 20-764 limits assumed, change not shown, form in doubt): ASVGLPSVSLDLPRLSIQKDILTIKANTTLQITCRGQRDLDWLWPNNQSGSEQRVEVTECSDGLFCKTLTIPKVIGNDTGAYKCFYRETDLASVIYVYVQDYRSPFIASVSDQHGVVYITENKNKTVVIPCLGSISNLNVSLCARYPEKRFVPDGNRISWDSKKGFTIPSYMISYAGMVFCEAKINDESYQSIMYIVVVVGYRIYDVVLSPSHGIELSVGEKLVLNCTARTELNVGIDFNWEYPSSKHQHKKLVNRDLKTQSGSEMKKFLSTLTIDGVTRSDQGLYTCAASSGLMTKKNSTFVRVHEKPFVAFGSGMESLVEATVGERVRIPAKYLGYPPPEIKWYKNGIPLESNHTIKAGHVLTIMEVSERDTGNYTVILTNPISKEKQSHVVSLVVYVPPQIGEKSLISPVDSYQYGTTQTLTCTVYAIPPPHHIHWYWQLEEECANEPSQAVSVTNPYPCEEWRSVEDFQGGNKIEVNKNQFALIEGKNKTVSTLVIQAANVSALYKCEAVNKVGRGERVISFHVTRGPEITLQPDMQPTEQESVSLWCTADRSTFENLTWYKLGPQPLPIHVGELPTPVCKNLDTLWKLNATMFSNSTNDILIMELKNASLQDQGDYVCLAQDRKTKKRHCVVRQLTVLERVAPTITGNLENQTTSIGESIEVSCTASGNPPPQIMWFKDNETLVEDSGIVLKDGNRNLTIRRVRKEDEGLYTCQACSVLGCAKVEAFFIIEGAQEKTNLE
assay.readout: Binding to 1 nM KDR, % (%)

{"columns": ["binder", "Binding to 1 nM KDR, %, %"],
 "data": [
  ["4′H5 PR4 (designed binder) EVVAATPTSLLISWRHPHFPTRYYRITYGETGGNSPVQEFTVPLQPPTATISGLKPGVDYTITVYAVTLAQNGHELFTPISINYRT", 18],
  ["2′Del H6 PR4 (designed binder) EVVAATPTSLLISWRHPHFPTRYYRITYGETGGNSPVQEFTVPLQPPTATISGLKPGVDYTITVYAVTTGHHDHELIIPISINYRT", 28],
  ["2′DelE4 PR4 (designed binder) EVVAATPTSLLISWRHPHFPTRYYRITYGETGGNSPVQEFTVPLQPPTATISGLKPGVDYTITVYAVTVHWNGHELMTPISINYRT", 34],
  ["3C3 PR3 (designed binder) EVVAATPTSLLISWRHPHFPTRYYRITYGETGGNSPVQEFTVPLQPPTATISGLKPGVDYTITVYAVTMEQNGHELFTPISINYRT", 17],
  ["3′B11 PR4 (designed binder) EVVAATPTSLLISWRHPHFPTRYYRITYGETGGNSPVQEFTVPLQPPTATISGLKPGVDYTITVYAVTETWNDHEIRTPISINYRT", 23]
]}

(I) 3′A9 PR4 (designed binder) EVVAATPTSLLISWRHPHFPTRYYRITYGETGGNSPVQEFTVPLQPPTATISGLKPGVDYTITVYAVTLAHNDRELLTPISINYRT
(II) 3′H10 PR4 (designed binder) EVVAATPTSLLISWRHPHFPTRYYRITYGETGGNSPVQEFTVPLQPPTATISGLKPGVDYTITVYAVTWAWNDHELMTPISINYRT
Task item: Could you please tell me which of these two has the higher Binding to 1 nM KDR, %: I or II ? Respond using the label that marks the chosen record.
Reply: I
